Data origin, for the record: patent US7119182B1

Reported IC50 values are given for each entry in this list.
# tested-on: thrombin receptor (Homo sapiens)
# Construct: In this assay, washed human platelets are prepared by the method of Baenzinger; endogenous in cells
# Sequence (P25116 22-425): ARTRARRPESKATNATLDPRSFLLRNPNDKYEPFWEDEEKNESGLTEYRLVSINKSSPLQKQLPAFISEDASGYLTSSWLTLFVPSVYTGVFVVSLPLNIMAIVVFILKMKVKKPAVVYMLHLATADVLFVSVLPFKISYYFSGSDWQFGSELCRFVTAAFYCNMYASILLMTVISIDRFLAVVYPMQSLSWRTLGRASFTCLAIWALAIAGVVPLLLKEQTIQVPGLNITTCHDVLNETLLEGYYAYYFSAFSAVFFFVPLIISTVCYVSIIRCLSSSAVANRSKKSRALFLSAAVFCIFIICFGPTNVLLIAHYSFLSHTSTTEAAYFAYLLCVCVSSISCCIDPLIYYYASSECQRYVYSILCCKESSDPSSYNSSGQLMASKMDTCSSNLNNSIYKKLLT
# protocol-text: Platelet activation/aggregation assays in the presence of thrombin, antagonist peptides
# condition-label: read-out: IC50 (50% inhibition of activation or aggregation)
Square brackets hold non-standard residues; d marks the D form. Peptide text beside a SMILES is read from it. * marks the point of attachment. Cha = N[C@@H](CC1CCCCC1)C(=O)O; Piv = CC(C)(C)C(=O)*; Mpa = O=C(O)CCS
Number in µM, nothing else.

Take a look at these entries with their results.
1. C[C@H](NC(=O)[C@H](CCCNC(=N)N)NC(=O)[C@H](CC1CCCCC1)NC(=O)[C@H](CC1CCCCC1)NC(=O)[C@H](Cc1ccccc1)NC(=O)CCS)C(=O)N1CCC[C@H]1C(=O)N[C@@H](CC(N)=O)C(=O)N[C@@H](CC(=O)O)C(=O)N[C@@H](CCCCN)C(N)=O [Mpr-F(Cha) (Cha)RAPNDK-NH2] ([Mpa]F[Cha][Cha]RAPNDK-NH2) = 40
2. C[C@H](NC(=O)[C@H](CC(=O)O)NC(=O)[C@H](CC(N)=O)NC(=O)[C@@H]1CCCN1C(=O)[C@H](CCCCN)NC(=O)[C@H](CCCNC(=N)N)NC(=O)[C@H](CC1CCCCC1)NC(=O)[C@H](CC1CCCCC1)NC(=O)[C@H](Cc1ccccc1)NC(=O)CCS)C(N)=O [Mpr-F(Cha) (Cha)RKPNDA-NH2] ([Mpa]F[Cha][Cha]RKPNDA-NH2) = 50
3. N=C(N)NCCC[C@H](NC(=O)[C@H](CC1CCCCC1)NC(=O)[C@H](CC1CCCCC1)NC(=O)[C@H](Cc1ccccc1)NC(=O)CCS)C(=O)N[C@@H](CC(N)=O)C(=O)N1CCC[C@H]1C(=O)N[C@@H](CC(N)=O)C(=O)N[C@@H](CC(=O)O)C(=O)N[C@@H](CCCCN)C(=O)N[C@@H](Cc1ccc(O)cc1)C(=O)N[C@@H](CCC(=O)O)C(N)=O ([Mpa]F[Cha][Cha]RNPNDKYE-NH2) = 80
4. CSCCC(=O)N[C@@H](Cc1ccccc1)C(=O)N[C@@H](CC1CCCCC1)C(=O)N[C@@H](CC1CCCCC1)C(=O)N[C@@H](CCCNC(=N)N)C(=O)N[C@@H](CCCCN)C(=O)N1CCC[C@H]1C(=O)N[C@@H](CC(N)=O)C(=O)N[C@@H](CC(=O)O)C(=O)N[C@@H](CCCCN)C(N)=O [(SMeMpr)-F(Cha)(Cha)RKPNDK-NH2] ([Mpa](Me)F[Cha][Cha]RKPNDK-NH2) = 10
5. CC(C)C[C@H](NC(=O)[C@H](CC(C)C)NC(=O)[C@H](Cc1ccccc1)NC(=O)C(C)(C)C)C(=O)N[C@@H](CCCNC(=N)N)C(N)=O [Pivaloyl-FLLR-NH2] (Piv-FLLR-NH2) = 1000

Consider the record given below.
Request the reported IC50 associated with N=C(N)NCCC[C@H](NC(=O)[C@H](CC1CCCCC1)NC(=O)[C@H](CC1CCCCC1)NC(=O)[C@H](Cc1ccccc1)NC(=O)CCS)C(=O)N[C@@H](CC(N)=O)C(=O)N1CCC[C@H]1C(=O)N[C@@H](CC(N)=O)C(=O)N[C@@H](CC(=O)O)C(=O)N[C@@H](CCCCN)C(=O)N[C@@H](Cc1ccc(O)cc1)C(N)=O [Mpr-F(Cha) (Cha)RNPNDKY-NH2] ([Mpa]F[Cha][Cha]RNPNDKY-NH2) 75
